Answer each item with its documented pIC50.
Target: Sodium-dependent serotonin transporter
Experiment: In vitro affinity for serotonin transporter in Rhesus (Macaca mulatta) or Cynomolgus (Macaca fasicularis) monkey striata using [3H]citalopram displacement.
Numbers only, as −log10 of the molar value.

The following molecules have reported results that may help.
Molecule: COC(=O)C1C(c2ccc(Cl)c(Cl)c2)CC2CCC1N2CCC[N+]12CC[S][Re]13(=[O])[S]CC[N]3C(=O)C2 (centres undefined)
Data Value: 6.19

Molecule: COC(=O)C1=C(c2ccc3ccccc3c2)CC2CCC1N2CCCN1CC[S][Re]2(=[O])[S]CC[N]2C(=O)C1 (centres undefined)
Data Value: 6.02

Could I get pIC50 for every one of these entries?
1. COC(=O)C1=C(c2ccc(Cl)c(Cl)c2)CC2CCC1N2CCCN1CC[S][Re]2(=[O])[S]CC[N]2C(=O)C1 (centres undefined)
2. CCC(=O)C1=C(c2ccc(Cl)c(Cl)c2)CC2CCC1N2CCCN1CC[S][Re]2(=[O])[S]CC[N]2C(=O)C1 (centres undefined)

Found:
1: 5.77; 2: 5.70

###

Target: Sodium-dependent dopamine transporter
Test: In vitro affinity for dopamine transporter in Rhesus (Macaca mulatta) or Cynomolgus (Macaca fasicularis) monkey striata using [3H]WIN-35428 displacement.
Readout: IC50 (nM)
Give bare numbers, in nM.

Compound: COC(=O)C1=C(c2ccc(F)cc2)CC2CCC1N2CCCN1CC[S][Re]2(=[O])[S]CC[N]2C(=O)C1 (stereo not given)
IC50 [nM]: 3500
//
Compound: COC(=O)C1=C(c2ccc(Cl)c(Cl)c2)CC2CCC1N2CCCN1CC[S][Re]2(=[O])[S]CC[N]2C(=O)C1 (stereo not given)
IC50 [nM]: 60
//
Compound: CCC(=O)C1=C(c2ccc(Cl)c(Cl)c2)CC2CCC1N2CCCN1CC[S][Re]2(=[O])[S]CC[N]2C(=O)C1 (stereo not given)
IC50 [nM]: 1200
//
Compound: COC(=O)C1=C(c2ccc3ccccc3c2)CC2CCC1N2CCCN1CC[S][Re]2(=[O])[S]CC[N]2C(=O)C1 (stereo not given)
IC50 [nM]: 63.4

Lookup: Value lookup for IC50; key = CCC(=O)C1=C(c2ccc(F)cc2)CC2CCC1N2CCCN1CC[S][Re]2(=[O])[S]CC[N]2C(=O)C1 (stereo not given)
Found: 660

###

Target: Sodium-dependent serotonin transporter
Test: In vitro affinity for serotonin transporter in Rhesus (Macaca mulatta) or Cynomolgus (Macaca fasicularis) monkey striata using [3H]citalopram displacement.
Readout: IC50 (nM)
One number for each entry, in nM.

Compound: CCC(=O)C1=C(c2ccc(F)cc2)CC2CCC1N2CCCN1CC[S][Re]2(=[O])[S]CC[N]2C(=O)C1 (centres undefined)
Readout: IC50
U: nM
Data Value: 2100
--
Compound: COC(=O)C1=C(c2ccc(F)cc2)CC2CCC1N2CCCN1CC[S][Re]2(=[O])[S]CC[N]2C(=O)C1 (centres undefined)
Readout: IC50
U: nM
Data Value: 4000
--
Compound: COC(=O)C1C(c2ccc3ccccc3c2)CC2CCC1N2CCCN1CC[S][Re]2(=[O])[S]CC[N]2C(=O)C1 (centres undefined)
Readout: IC50
U: nM
Data Value: 120

# ---- query compound ----
Lookup: Notebook: pull reported IC50 for Sodium-dependent serotonin transporter, entry CCC(=O)C1C(c2ccc(Cl)c(Cl)c2)CC2CCC1N2CCCN1CC[S][Re]2(=[O])[S]CC[N]2C(=O)C1 (centres undefined)
Found: 337
